Values were extracted from the supplement of paper PMC10065799.

measured on: Fyn (UniProt P06241)
Sequence (P06241 whole entry, looked up): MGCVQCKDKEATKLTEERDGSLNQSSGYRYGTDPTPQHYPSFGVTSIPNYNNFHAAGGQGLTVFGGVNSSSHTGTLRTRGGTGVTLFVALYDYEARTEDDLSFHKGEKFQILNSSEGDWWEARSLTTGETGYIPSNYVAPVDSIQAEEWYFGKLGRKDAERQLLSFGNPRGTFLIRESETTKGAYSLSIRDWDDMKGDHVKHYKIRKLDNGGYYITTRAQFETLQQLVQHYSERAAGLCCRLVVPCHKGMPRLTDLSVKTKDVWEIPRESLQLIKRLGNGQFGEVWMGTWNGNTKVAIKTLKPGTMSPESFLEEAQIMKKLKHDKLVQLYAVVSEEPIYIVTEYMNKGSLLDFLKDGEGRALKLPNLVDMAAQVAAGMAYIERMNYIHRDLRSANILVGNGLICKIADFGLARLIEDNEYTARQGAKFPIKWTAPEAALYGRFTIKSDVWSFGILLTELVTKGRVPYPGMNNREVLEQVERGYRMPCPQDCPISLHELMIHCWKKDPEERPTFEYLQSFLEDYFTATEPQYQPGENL
experimental protocol: phosphorylation enrichment, bacterial display (enrichment ratio); higher = better substrate or ligand; peptides without Tyr show the background;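 further: 11-residue human phosphosite peptides and single-mutation variants displayed on the E. coli surface, counted by deep sequencing, each peptide's frequency after selection divided by its frequency in the unselected input library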;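 further: frequency after pTyr selection over input frequency; kinase dosed for 20-30% of maximal phosphorylation in three min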
reported property: phosphorylation enrichment
Numbers only.

- macromolecule sequence: "ILGRYYETGSI [PAX2_Y73]"
  numeric value: 0.562
- macromolecule sequence: "LKLWDYSRGRC [WDR5B_Y239]"
  numeric value: 0.66
- macromolecule sequence: "VEDPEYAVTQL [STOML2_Y124]"
  numeric value: 0.398
- macromolecule sequence: "TFWKKYCTFWK [CCDC70_Y125_R126C]"
  numeric value: 0.381
- macromolecule sequence: "QRRYVYYYSYL [PTEN_Y176]"
  numeric value: 3.65
- macromolecule sequence: "RRQDLYSARDL [SART1_Y249]"
  numeric value: 0.972
- macromolecule sequence: "KNITEYCRHLI [RECQL_Y492_D495H]"
  numeric value: 0.433
- macromolecule sequence: "PHMQTYEVDHN [SDHB_Y61_L65H]"
  numeric value: 1.03

# map each sequence to its phosphorylation enrichment
1. FLEEEYVKAVG [TF_Y674_G671E_YF]
2. GSLEDYVRETN [GIMAP6_Y176]

1. 0.558
2. 0.468

Consider the sequence QRMGTYGVRAA [ICAM2_Y260] . State its measured phosphorylation enrichment.
2.06

* * *

measured on: MERTK (UniProt Q12866)
Sequence (Q12866 whole entry, looked up): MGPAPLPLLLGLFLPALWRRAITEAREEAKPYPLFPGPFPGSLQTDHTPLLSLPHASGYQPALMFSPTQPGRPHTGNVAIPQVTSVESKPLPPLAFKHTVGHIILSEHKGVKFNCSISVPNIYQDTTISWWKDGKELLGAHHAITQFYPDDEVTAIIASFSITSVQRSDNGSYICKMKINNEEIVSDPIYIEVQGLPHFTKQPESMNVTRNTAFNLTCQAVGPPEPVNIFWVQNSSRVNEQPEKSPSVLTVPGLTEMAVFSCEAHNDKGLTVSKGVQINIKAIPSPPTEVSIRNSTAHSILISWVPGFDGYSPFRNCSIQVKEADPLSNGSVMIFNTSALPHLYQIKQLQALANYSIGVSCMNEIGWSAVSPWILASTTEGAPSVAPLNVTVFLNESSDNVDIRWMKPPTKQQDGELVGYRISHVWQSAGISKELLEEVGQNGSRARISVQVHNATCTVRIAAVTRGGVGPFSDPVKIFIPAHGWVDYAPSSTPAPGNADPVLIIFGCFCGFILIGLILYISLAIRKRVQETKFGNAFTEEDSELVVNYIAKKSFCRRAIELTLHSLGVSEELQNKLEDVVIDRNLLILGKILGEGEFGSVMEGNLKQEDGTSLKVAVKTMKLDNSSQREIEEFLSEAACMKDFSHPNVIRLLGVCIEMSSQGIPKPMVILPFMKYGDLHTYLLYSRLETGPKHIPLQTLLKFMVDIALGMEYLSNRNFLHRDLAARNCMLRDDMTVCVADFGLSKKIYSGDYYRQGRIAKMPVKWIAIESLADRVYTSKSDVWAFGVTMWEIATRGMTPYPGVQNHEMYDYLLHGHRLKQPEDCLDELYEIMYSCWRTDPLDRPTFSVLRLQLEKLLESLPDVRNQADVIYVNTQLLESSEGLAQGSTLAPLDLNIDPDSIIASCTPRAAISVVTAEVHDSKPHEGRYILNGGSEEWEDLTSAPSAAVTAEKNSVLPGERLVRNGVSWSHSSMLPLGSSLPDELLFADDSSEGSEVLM
experimental protocol: phosphorylation enrichment, bacterial display (enrichment ratio); higher = better substrate or ligand; peptides without Tyr show the background
reported property: phosphorylation enrichment
Answers are plain numbers.

Field: example entries. Status: answers known.
- macromolecule sequence: "EMTRNYIIFIE [BCO2_Y294_G289E]"
  phosphorylation enrichment: 0.513
- macromolecule sequence: "FMGVEYSSCDT [EPHA3_Y937_T933M]"
  phosphorylation enrichment: 0.479
- macromolecule sequence: "GSLEDYVRETN [GIMAP6_Y176]"
  phosphorylation enrichment: 0.442
- macromolecule sequence: "DLVRPYVHKIL [SF3B1_Y570]"
  phosphorylation enrichment: 0.504
- macromolecule sequence: "FTNRSYDLDYD [MYC_Y12_N11S]"
  phosphorylation enrichment: 0.512
- macromolecule sequence: "AEPDIYQEKLS [USP54_Y1233]"
  phosphorylation enrichment: 0.405

# map each sequence to its phosphorylation enrichment
1. TGILLYGLASR [QARS1_Y57]
2. FSCLPYRRLAF [SLC52A2_Y305_G306R_YF]
3. DFTEAYNSKIK [CLK1_Y305_P307S_YF]
4. EQLRAYLEGLC [HLA-C_Y183_T187L]
5. PELIDYGKLRK [ACTN1_Y193]

1. 1.79
2. 0.531
3. 0.464
4. 0.615
5. 0.62

* * *

measured on: Fes (UniProt P07332)
Sequence (P07332 whole entry, looked up): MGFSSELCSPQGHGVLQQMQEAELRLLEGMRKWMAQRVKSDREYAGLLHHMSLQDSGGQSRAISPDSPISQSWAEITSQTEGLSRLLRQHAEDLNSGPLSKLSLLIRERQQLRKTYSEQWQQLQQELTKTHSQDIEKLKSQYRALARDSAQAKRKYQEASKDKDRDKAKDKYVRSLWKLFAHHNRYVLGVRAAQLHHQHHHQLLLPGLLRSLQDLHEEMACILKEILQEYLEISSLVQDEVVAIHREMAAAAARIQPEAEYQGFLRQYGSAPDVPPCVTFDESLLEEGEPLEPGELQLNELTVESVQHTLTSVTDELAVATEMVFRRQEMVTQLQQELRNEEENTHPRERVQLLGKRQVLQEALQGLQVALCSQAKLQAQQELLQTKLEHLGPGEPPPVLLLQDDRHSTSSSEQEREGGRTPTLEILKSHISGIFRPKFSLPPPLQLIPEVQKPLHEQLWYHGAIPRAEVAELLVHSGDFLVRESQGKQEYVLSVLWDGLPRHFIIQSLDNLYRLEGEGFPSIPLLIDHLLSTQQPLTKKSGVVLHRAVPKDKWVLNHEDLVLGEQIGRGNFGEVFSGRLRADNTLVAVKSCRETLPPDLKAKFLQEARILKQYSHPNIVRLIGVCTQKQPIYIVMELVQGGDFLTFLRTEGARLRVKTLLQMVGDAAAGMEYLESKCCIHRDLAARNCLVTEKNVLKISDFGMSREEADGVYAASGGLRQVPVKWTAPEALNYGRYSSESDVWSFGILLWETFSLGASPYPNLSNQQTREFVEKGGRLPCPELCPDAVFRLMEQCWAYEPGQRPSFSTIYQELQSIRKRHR
experimental protocol: phosphorylation enrichment, bacterial display (enrichment ratio); higher = better substrate or ligand; peptides without Tyr show the background
reported property: phosphorylation enrichment
Numbers only.

Field: example entries. Status: answers known.
- macromolecule sequence: "SMEGLYSSAQD [CLIC5_Y111_T114A]"
  phosphorylation enrichment: 1.55
- macromolecule sequence: "YSNVLYRPRGA [TMIGD2_Y197]"
  phosphorylation enrichment: 0.753
- macromolecule sequence: "HIILLYIFLKN [STXBP1_Y411_R406H]"
  phosphorylation enrichment: 1.6
- macromolecule sequence: "GRLPEYNTRIA [CCDC151_Y542]"
  phosphorylation enrichment: 0.589
- macromolecule sequence: "HKETGYVVERP [BCLAF1_Y466_L461H]"
  phosphorylation enrichment: 1.36
- macromolecule sequence: "YRKNIYNVKST [SYNE2_Y575]"
  phosphorylation enrichment: 0.47
- macromolecule sequence: "KYVKMCDNHQL [MYO9A_Y203_Y203C]"
  phosphorylation enrichment: 0.546
- macromolecule sequence: "IFGVSYGEYRY [CFTR_Y512_D513G]"
  phosphorylation enrichment: 1.33

# map each sequence to its phosphorylation enrichment
1. NLTLKYPIEHG [ACTA1_Y71_I66N]
2. AKKVFYVIETR [SHH_Y253]

0.93
1.26

# map each sequence to its phosphorylation enrichment
1. NSRFTYKLEVK [USH2A_Y3747_YF]
2. IQTDGDRAPEA [UHMK1_Y197_Y197D]
3. LTFPDYLPCSV [SAG_Y129]
4. RAVLLYEFVGK [NATD1_Y45_YF]
5. LHVKMYNFLRS [ADGRG7_Y760_R756H]

1: 1.39; 2: 1.35; 3: 1.44; 4: 3.12; 5: 1.89

# map each sequence to its phosphorylation enrichment
1. SLAARYYNWVC [FLT4_Y1230_S1235C]
2. KFVKMCDNHQL [MYO9A_Y203_Y203C_YF]
3. TENAGYYFRVS

1.47
0.603
2.21

# map each sequence to its phosphorylation enrichment
1. RSSKTYLKTRS [LPL_Y329_M328T]
2. EQLRAYLEGEC [HLA-C_Y183_T187E]
3. RLLRGYDQSAY [HLA-C_Y137]

0.967
1.25
0.826
